# Target Under Test: bovine testes calmodulin (bovine, UniProt P62157 1-149)
# Assay Summary: SPR
Assign pKd to each entry below.
One number for each entry, as −log10 of the molar value.

Reference set, count: 3
binder="His-tagged ACA8 N-terminus S99D (6His-1M-I116) (domain or fragment) MTSLLKSSPGRRRGGDVESGKSEHADSDSDTFYIPSKNASIERLQQWRKAALVLNASRRFRYTLDLKKEQETREMRQKIRSHAHALLAANRFMDMGREDGVEKTTGPATPAGDFGI" reported_result=7.95
binder="His-tagged ACA8 N-terminus S29D (6His-1M-I116) (domain or fragment) MTSLLKSSPGRRRGGDVESGKSEHADSDDDTFYIPSKNASIERLQQWRKAALVLNASRRFRYTLDLKKEQETREMRQKIRSHAHALLAANRFMDMGRESGVEKTTGPATPAGDFGI" reported_result=7.65
binder="His-tagged ACA8 N-terminus S19D (6His-1M-I116) (domain or fragment) MTSLLKSSPGRRRGGDVEDGKSEHADSDSDTFYIPSKNASIERLQQWRKAALVLNASRRFRYTLDLKKEQETREMRQKIRSHAHALLAANRFMDMGRESGVEKTTGPATPAGDFGI" reported_result=7.84

The binder listed as His-tagged ACA8 N-terminus, wild type (6His-1M-I116) (domain or fragment) MTSLLKSSPGRRRGGDVESGKSEHADSDSDTFYIPSKNASIERLQQWRKAALVLNASRRFRYTLDLKKEQETREMRQKIRSHAHALLAANRFMDMGRESGVEKTTGPATPAGDFGI has a reported pKd of 7.71
